Reference for the values: ChEMBL document CHEMBL1124114

- measurement-description: Dose ratio in the presence / absence of N-methyl-nalorphine (11.5 mg/kg) in acetic acid (AA) writhing
- Format: functional
Numbered stars: 1 amine (or outer) side, 2 acyl side, 3 side chain; on linkers, the order of the positions; unused ones are H or OH. Square brackets hold non-standard residues; d marks the D form. Peptide text beside a SMILES is read from it. * marks the point of attachment. Phe(4-NO2) = N[C@@H](Cc1ccc([N+](=O)[O-])cc1)C(=O)O; Tyr(Nα-amidino) = N=C(N)N[C@@H](Cc1ccc(O)cc1)C(=O)*; X1 = O=C([C@@H](CSS(=O)(=O)O)N[*:1])[*:2]; X3 = O=C([C@@H](CCS(=O)(=O)O)N[*:1])[*:2]
Entries and their measured Ratio follow.
Output spec: single numeric token, no unit.

Consider the following illustrative entries.
Complete the entry with Ratio for CSCC[C@H](NC(=O)[C@@H](N)Cc1ccc(O)cc1)C(=O)NCC(=O)N[C@@H](Cc1ccc([N+](=O)[O-])cc1)C(=O)N1CCC[C@H]1C(N)=O (H-YMG[Phe(4-NO2)]P-NH2)
1.2

Complete the entry with Ratio for NC(=O)[C@@H]1CCCN1C(=O)[C@H](Cc1ccc([N+](=O)[O-])cc1)NC(=O)CNC(=O)[C@@H](CCCN=C(N)N)NC(=O)[C@@H](N)Cc1ccc(O)cc1
5.5

Complete the entry with Ratio for N=C(N)NCCC[C@@H](NC(=O)[C@H](Cc1ccc(O)cc1)NC(=N)N)C(=O)NCC(=O)N[C@@H](Cc1ccc([N+](=O)[O-])cc1)C(=O)N1CCC[C@H]1C(N)=O ({Tyr(Nα-amidino)}-[dR]G[Phe(4-NO2)]P-NH2)
4.6

Complete the entry with Ratio for Cl.NC(=O)[C@@H]1CCCN1C(=O)[C@H](Cc1ccc([N+](=O)[O-])cc1)NC(=O)CNC(=O)[C@@H](CCS(=O)(=O)O)NC(=O)[C@@H](N)Cc1ccc(O)cc1 (H-Y[X3]G[Phe(4-NO2)]P-NH2)
4.2

Switching to the query record.
Complete the entry with Ratio for NC(=O)[C@@H]1CCCN1C(=O)[C@H](Cc1ccc([N+](=O)[O-])cc1)NC(=O)CNC(=O)[C@@H](CSS(=O)(=O)O)NC(=O)[C@@H](N)Cc1ccc(O)cc1 (H-Y[X1]G[Phe(4-NO2)]P-NH2)
3.9

---

- Test system: Mus musculus
- measurement-description: In vivo inhibition of phenyl-1,4-benzoquinone(PBQ) -induced writhing in mice (sc)
- Format: functional
Numbered stars: 1 amine (or outer) side, 2 acyl side, 3 side chain; on linkers, the order of the positions; unused ones are H or OH. Square brackets hold non-standard residues; d marks the D form. Peptide text beside a SMILES is read from it. Phe(4-NO2) = N[C@@H](Cc1ccc([N+](=O)[O-])cc1)C(=O)O; X1 = O=C([C@@H](CSS(=O)(=O)O)N[*:1])[*:2]; X2 = C[S+](C)CC[C@@H](N[*:1])C(=O)[*:2]
reported-metric: ED50
Write your answer as a measured quantity: the number, then the unit.

Given NC(=O)[C@@H]1CCCN1C(=O)[C@H](Cc1ccc([N+](=O)[O-])cc1)NC(=O)CNC(=O)[C@@H](CCC(=O)O)NC(=O)[C@@H](N)Cc1ccc(O)cc1 , report its ED50 on Mus musculus.
3 mg/kg

Given C[S+](C)CC[C@@H](NC(=O)[C@H](Cc1ccc(O)cc1)N=C(N)N)C(=O)NCC(=O)N[C@@H](Cc1ccc([N+](=O)[O-])cc1)C(=O)N1CCC[C@H]1C(N)=O.Cl.Cl , report its ED50 on Mus musculus.
1.1 mg/kg

Continuing:
Given C[S+](C)CC[C@@H](NC(=O)[C@@H](N)Cc1ccc(O)cc1)C(=O)NCC(=O)N[C@@H](Cc1ccc([N+](=O)[O-])cc1)C(=O)N1CCC[C@H]1C(N)=O.Cl.Cl (H-Y[X2]G[Phe(4-NO2)]P-NH2) , report its ED50 on Mus musculus.
3.1 mg/kg

Given NC(=O)[C@@H]1CCCN1C(=O)[C@H](Cc1ccc([N+](=O)[O-])cc1)NC(=O)CNC(=O)[C@@H](CSS(=O)(=O)O)NC(=O)[C@@H](N)Cc1ccc(O)cc1 (H-Y[X1]G[Phe(4-NO2)]P-NH2) , report its ED50 on Mus musculus.
0.4 mg/kg
